Measurement Target: human Thyroid Receptor alpha (THRa1), THRA (gene 7067)
Assay Method Text: ATG_THRa1_TRANS: Attagene TRANS-FACTORIAL HepG2 Assay for human Thyroid Receptor alpha (THRa1) (AID 2283014)
Inconclusive results are not listed. Calls of active or inactive are those of the source. How the source made its calls: active means hit-call score of the fitted dose curve at least 0.9, where 1 is the maximum; inconclusive means response in the unintended direction; inactive means score below 0.9.
Measure: outcome

[[record]]
molecule = "C=CC(=O)OCC(Br)CBr (centres undefined)"
recorded_measurement = "inactive"

[[record]]
molecule = "Cn1c([N+](=O)[O-])cnc1COC(N)=O"
recorded_measurement = "inactive"

[[record]]
molecule = "C=CCOc1c(Br)cc(Br)cc1Br"
recorded_measurement = "inactive"

[[record]]
molecule = "Nc1ncn([C@@H]2O[C@H](CO)[C@@H](O)[C@H]2O)c(=O)n1"
recorded_measurement = "inactive"

[[record]]
molecule = "[Cl][Bi]([Cl])([c]1ccccc1)([c]1ccccc1)[c]1ccccc1"
recorded_measurement = "inactive"

[[record]]
molecule = "CN(C)c1ccc(C(=N)c2ccc(N(C)C)cc2)cc1"
recorded_measurement = "inactive"

[[record]]
molecule = "COC(=O)c1sccc1S(N)(=O)=O"
recorded_measurement = "inactive"

[[record]]
molecule = "CCCCCCCC/C=C\\CCCCCCCC(=O)O"
recorded_measurement = "inactive"

[[record]]
molecule = "c1ccc2c(c1)ccc1cc3c(ccc4ccccc43)cc12"
recorded_measurement = "inactive"

[[record]]
molecule = "COc1c2ccoc2cc2oc(=O)ccc12"
recorded_measurement = "inactive"

[[record]]
molecule = "OCCN(CCO)c1ccccc1"
recorded_measurement = "inactive"

[[record]]
molecule = "Nc1ccc(Oc2ccc(N)c(N)c2)cc1"
recorded_measurement = "inactive"

[[record]]
molecule = "CC(C)COC(=O)C=Cc1ccccc1"
recorded_measurement = "inactive"

[[record]]
molecule = "COCC(C)N (centres undefined)"
recorded_measurement = "inactive"


###

Assay Method Text: TOX21_p53_BLA_p5_viability: Viability Assessment in the Tox21 HCT-116 p53 Agonism Beta-lactamase Assay, Phase 5 (AID 2283600)
Description: TOX21_p53_BLA_p5 is a cell-based, single-readout assay that uses HCT116, a human intestinal cell line, […] in a 1536-well plate.TOX21_p53_BLA_p5_viability is an assay readout measuring cellular ATP content and detected with CellTiter-Glo Luciferase-coupled ATP quantitation.TOX21_p53_BLA_p5_viability used a type of viability reporter where loss-of-signal activity can be used to understand changes in the cell viability. […]
Inconclusive results are not listed. Active and inactive are the calls of the source. Rule for the calls: active = hit-call score of the fitted dose curve at least 0.9, where 1 is the maximum; inconclusive = response in the unintended direction; inactive = score below 0.9.
Measure: AC50

[[record]]
molecule = "COC(=O)C1=C(C)NC(C)=C(C(=O)OCC(C)C)C1c1ccccc1[N+](=O)[O-] (stereo not drawn)"
recorded_measurement = "inactive"

[[record]]
molecule = "CCC(C)(C)C1CCCCC1OC(C)=O (stereo not drawn)"
recorded_measurement = "inactive"

[[record]]
molecule = "COc1cc(NC(=O)CC(C)=O)c(OC)cc1Cl"
recorded_measurement = "inactive"

[[record]]
molecule = "O=Cc1ccc(CO)o1"
recorded_measurement = "inactive"

[[record]]
molecule = "CCCCCCC(O)CO (stereo not drawn)"
recorded_measurement = "inactive"

[[record]]
molecule = "Cc1cc(O)c(Cl)c(C)c1Cl"
recorded_measurement = "70.1 µM (active)"

[[record]]
molecule = "CN(C)c1ccc(N=Nc2ccccc2C(=O)O)cc1"
recorded_measurement = "75.8 µM (active)"

[[record]]
molecule = "Cc1oncc1C(=O)Nc1ccc(C(F)(F)F)cc1"
recorded_measurement = "inactive"

